src = the supplement of paper PMC9732359

Assay: protein stability index of a GFP-peptide fusion (yeast GPS) (PSI 1-4); higher = more stable; sorted into four equal gates, so the index is relative within each strain
Conditions: san1∆
Reported protein stability index values follow for various sequences

sequence chain | protein stability index
LQAQLDYLNAELGEFFV [FAS2] | 2.94
ILSNVDLAMANSLRRVM [RPB3] | 2.66
ITKFALFAESHDVLQKL [YML103C/NUP188] | 2.02
YMDKAKQYDNRITKSNE [LRP1] | 2.97
NGWEKYLHNVELGEKKN [ISW2] | 1.65
IVEEDLEPFEASKETAE [FAS2] | 3.1
LVLYDAENDVIEATDLG [BRR2] | 3.45
EGKYIVDVAKDINVKDL [RPT6] | 2.67
YIYSQETKSWINESAEN [MED1] | 2.46
AAGIWTCSCCKKTVAGG [RPL43A] | 3.02
QFGNACISLSGVPNYLV [SSN2] | 2.37
VAEIEKTADVKRQYVKQ [RPL20A] | 2.94
TWNGSPFDNSTEEKCKN [YJL039C/NUP192] | 3.26
SATVKTSDLLGSHLSET [ECM29] | 2.94
EDIVGALRRRVGPSEQN [REC8] | 2.71
NNHNMRNNSNNKTSNNN [SWI1] | 1.85
QFVSKLVDNLNAEVVAG [BRR2] | 2.22
QKNFMDQFQWILRKPGK [RRI2] | 2.67
AICRNHIMEPCIECQPK [HRT1] | 2.17
AMVEKYAPDVVRSLENL [RRP42] | 2.65
GPAAAIEFEYDPWNKLK [RPB3] | 3.05
EGRLLDNVQANDPAREK [SNF12] | 2.96
LFLTAPDSCNMQEKAAH [YCS4] | 2.86
LGNDIPHDLIIGTADIF [BRR2] | 2.84
QHEQQKQQEQLEQQKQP [YMR153W/NUP53] | 3.04
LMETLRTLRRKGDINPE [RPB2] | 2.85
PLQSIPEIGNRKINLFY [SWI1] | 2.54
CNERVPLSVATELMNRS [SRP72] | 2.26
EEGEFIIDLYSLPEGLL [TAF14] | 3.57
VDIQIINQYQLLYNLKN [SWI1] | 1.49
LDKQIEELVEAIVLPMK [RPT5] | 3.45

---

Test: protein stability index of a GFP-peptide fusion (yeast GPS) (PSI 1-4); higher = more stable; sorted into four equal gates, so the index is relative within each strain
Conditions: pdr5∆
protein stability index vs 3: at or above is criterion met, below is criterion not met.

sequence chain | assigned category
VVKASELDQFWQEYSSV [SRP14] | criterion not met
SKQLSLEEKKKRPNNKT [IRR1] | criterion not met
NEDDALIYGISDEERDD [AAR2] | criterion met
FVIGVIIGTFSDSYKVS [RRP40] | criterion not met
HTEDEQIEKKKICRGRM [SIR4] | criterion met
DIDAVNGAVGKREGKTR [ISW2] | criterion met
VISNLVPKLESSRTKFW [YJL039C/NUP192] | criterion not met
IELTSYESIATYASVTG [RPN7] | criterion not met
PKDTSAATMTSAPPPAL [RGR1] | criterion not met
GSIGSRKYSFNYSSLPS [YAR002W/NUP60] | criterion not met
LDNFQKSVEKTMIKKTT [SMC3] | criterion met
NYHPMNIDETSDEVSRG [SMC4] | criterion met
MTTWRKLYTKELSVTGS [YMR129W/POM152] | criterion not met
DEVDAIGGRRFSEGTSA [RPT4] | criterion not met
VAAAGITASTLLYADSL [CYT1] | criterion not met
ADYRLILTGTPLQNNLP [SNF2] | criterion not met
LDSNFNLQREIDQAHVS [RPN14] | criterion not met
QLQQQPQMQCALQNLSQ [YGL172W/NUP49] | criterion not met
EQQKGQQTAQTQLEQQR [SNF5] | criterion met
VPSFLRPDITMYCRPAP [GRR1] | criterion not met
AIQMVDPASFYLFDEID [SMC3] | criterion not met
QHTTESDNISRKYEISF [RPB2] | criterion met
EYKSLFVVGVDNVSSQQ [RPP0] | criterion not met
ALMKTLIKFVDLSRNGR [NUT1] | criterion not met
MDKPLNFRILKSFTNDK [SRB5] | criterion met
